# key: entry, value: z-score
# system.under.test: Metabotropic glutamate receptor 8 (Rattus norvegicus) (UniProt P70579)
# Sequence (P70579 whole entry, looked up): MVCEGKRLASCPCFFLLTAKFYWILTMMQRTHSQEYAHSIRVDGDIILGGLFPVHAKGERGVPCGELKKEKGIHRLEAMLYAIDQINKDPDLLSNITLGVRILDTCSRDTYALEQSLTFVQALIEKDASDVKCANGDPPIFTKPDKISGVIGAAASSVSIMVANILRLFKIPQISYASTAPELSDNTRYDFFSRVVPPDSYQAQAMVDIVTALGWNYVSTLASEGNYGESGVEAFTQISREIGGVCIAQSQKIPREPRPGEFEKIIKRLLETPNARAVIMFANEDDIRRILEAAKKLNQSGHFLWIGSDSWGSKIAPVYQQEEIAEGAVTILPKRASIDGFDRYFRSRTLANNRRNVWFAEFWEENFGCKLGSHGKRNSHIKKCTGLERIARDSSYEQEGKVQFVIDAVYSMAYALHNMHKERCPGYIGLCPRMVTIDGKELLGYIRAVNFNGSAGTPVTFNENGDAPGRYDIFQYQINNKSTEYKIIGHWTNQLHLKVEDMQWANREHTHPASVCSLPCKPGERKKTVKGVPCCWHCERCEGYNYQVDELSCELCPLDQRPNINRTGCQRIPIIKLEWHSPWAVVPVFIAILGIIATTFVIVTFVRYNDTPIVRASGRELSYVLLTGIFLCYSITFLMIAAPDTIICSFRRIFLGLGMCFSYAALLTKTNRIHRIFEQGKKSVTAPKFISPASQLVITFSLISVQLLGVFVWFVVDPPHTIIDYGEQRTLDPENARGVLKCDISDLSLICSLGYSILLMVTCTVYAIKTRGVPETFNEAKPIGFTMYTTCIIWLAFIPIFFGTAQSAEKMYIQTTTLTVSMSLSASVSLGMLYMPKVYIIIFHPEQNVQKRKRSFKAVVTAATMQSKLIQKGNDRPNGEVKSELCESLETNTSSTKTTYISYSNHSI
# assay.name: mGluR8 Gi/Go-coupled signaling modulation – cell-based, rat, thallium flux, HTS, primary screen (AID 488969)
# test.conditions: HEK293 rat mGluR8, GIRK thallium flux, FluoZin2; at 10 µM; stronger effect = higher value; submaximal glutamate (EC20) added with thallium
In all, about 110,000 compounds were measured (“z-score”: median about -0.1, highest 2% from about 2 on). This is one part of a sample in which the highest values are shown more often than they occur.
Form rule: numeric answer, no unit written next to it.

Solved cases (2 shown):
- COc1cc(CN2CCCC(C)C2)cc([N+](=O)[O-])c1O (centres undefined): -0.494
- Cc1c(C(=O)O)cccc1-c1ccc(C=O)o1: 0.12

// below: z-score requested for another compound
// assay Metabotropic glutamate receptor 8 (Rattus norvegicus) (UniProt P70579), entry `CCC(NC(=O)NC1=NCCS1)(C(F)(F)F)C(F)(F)F` , z-score value = 0.399

###

# system.under.test: Metabotropic glutamate receptor 8 (Rattus norvegicus)
# assay.name: mGluR8 Gi/Go-coupled signaling modulation – cell-based, rat, thallium flux, HTS, primary screen (AID 488969)
# test.conditions: HEK293 rat mGluR8, GIRK thallium flux, FluoZin2; at 10 µM; stronger effect = higher value; submaximal glutamate (EC20) added with thallium
Over roughly 110,000 compounds, “z-score” has its median near -0.1; the highest 2% begin near 2. Only a selection was taken, and the highest values are over-represented in it overall.
# key: entry, value: z-score

// assay Metabotropic glutamate receptor 8 (Rattus norvegicus), entry Cc1ccc(CNC(=O)C(Cc2ccccc2)NS(=O)(=O)c2ccc3c(c2)CCC(=O)N3)cc1 (stereo unspecified) , z-score value = 0.0976

// assay Metabotropic glutamate receptor 8 (Rattus norvegicus), entry CCOC(=O)C1=C(C)C(c2ccccc2)NC(=S)N1 (stereo unspecified) , z-score value = 0.0117

// assay Metabotropic glutamate receptor 8 (Rattus norvegicus), entry `COc1ccc(S(=O)(=O)N2CCC(C(=O)NCc3ccccn3)CC2)cc1Cl` , z-score value = -0.477

// assay Metabotropic glutamate receptor 8 (Rattus norvegicus), entry `O=C1CS/C(=N\c2ccccn2)N1C1CCCCC1` , z-score value = -0.393

// assay Metabotropic glutamate receptor 8 (Rattus norvegicus), entry `FC(F)(F)c1nnc2ccc(N3CCCC3)nn12` , z-score value = -0.343

###

# system.under.test: Metabotropic glutamate receptor 8 (Rattus norvegicus)
# assay.name: mGluR8 Gi/Go-coupled signaling modulation – cell-based, rat, thallium flux, HTS, primary screen (AID 488969)
# test.conditions: HEK293 rat mGluR8, GIRK (G protein-gated inwardly rectifying potassium channel) thallium flux, FluoZin2; at 10 µM; stronger effect = higher value; submaximal glutamate (EC20) added with thallium
Whole data set: some 110,000 compounds, median “z-score” near -0.1, cut for the highest 2% near 2. Only a selection was taken, and the highest values are over-represented in it overall.
# key: entry, value: z-score
Form rule: numeric answer, no unit written next to it.

- CCOC(=O)c1sc(Nc2nc3c(F)cccc3s2)cc1C: 0.23
- O=C(Oc1c(Cl)cc(Cl)c2cccnc12)c1ccco1: 3.13
- COc1cccc(-c2nnc(Nc3nc4c(F)cccc4s3)o2)c1: 17.4

So, `O=C(Oc1c(Cl)cc(Cl)c2cccnc12)N1CCOCC1` ? Its z-score was -0.0144

So, `COC(=O)c1c(NS(C)(=O)=O)sc2c1CCCC2` ? Its z-score was 0.0189

So, `COc1ccc(NC(=O)/C(=C/c2ccc3c(c2)OCO3)NC(C)=O)cc1` ? Its z-score was -0.031
